tested on: MOLM14; test: cell viability relative to vehicle control; higher = less cytotoxic; details: 10 µM; SRSF2 genotype: SRSF2 P95H/wt;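 note: after 48 h exposure read by CellTiter-Glo luminescence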
Where a name gives a salt, the structure may show the parent alone.
The entries below are paired with their reported cell viability.
Reported property: cell viability

1) CCOC(=O)[C@H](CCc1ccccc1)N[C@@H](C)C(=O)N1Cc2cc(OC)c(OC)cc2C[C@H]1C(=O)O [Moexipril HCl] : 106%
2) Nc1cc(C(Cl)=C(Cl)Cl)c(S(N)(=O)=O)cc1S(N)(=O)=O [Clorsulon] : 104%
3) C1CCN2C[C@@H]3C[C@@H](CN4CCCC[C@@H]34)[C@H]2C1 [Sparteine] : 99%
4) CS(=O)(=O)N1CCc2c(-c3cnc(N)nc3)nc(N3CCOCC3)nc21 : 34.2%
5) CN(C)CCC(c1ccc(Cl)cc1)c1ccccn1 (stereo unspecified) [Chlorpheniramine Maleate] : 94.7%
6) O=C1CCC[C@@H]2[C@H]3CCC[N+]4([O-])CCC[C@@H](CN12)[C@@H]34 (stereo partly specified) [Oxymatrine (Matrine N-oxide)] : 100%
7) OC[C@H]1O[C@H](OC[C@H]2O[C@H](O[C@]3(CO)O[C@H](CO)[C@@H](O)[C@@H]3O)[C@H](O)[C@@H](O)[C@@H]2O)[C@H](O)[C@@H](O)[C@H]1O [D-(+)-Raffinose pentahydrate] : 112%
8) CC(C)(C)n1nc(-c2ccc(Cl)cc2)c2c(N)ncnc21 : 66%
9) C[C@H](CC[C@@H](O[C@@H]1O[C@H](CO[C@@H]2O[C@H](CO)[C@@H](O)[C@H](O)[C@H]2O)[C@@H](O)[C@H](O)[C@H]1O[C@@H]1O[C@H](CO)[C@@H](O)[C@H](O)[C@H]1O)C(C)(C)O)[C@H]1CC[C@@]2(C)[C@@H]3CC=C4[C@@H](CC[C@H](O[C@@H]5O[C@H](CO[C@@H]6O[C@H](CO)[C@@H](O)[C@H](O)[C@H]6O)[C@@H](O)[C@H](O)[C@H]5O)C4(C)C)[C@]3(C)[C@H](O)C[C@]12C [Mogroside V] : 104%
10) CC(COc1ccccc1)N(CCCl)Cc1ccccc1 (stereo unspecified) [Phenoxybenzamine HCl] : 57.5%
11) CCOc1ccccc1OCCN[C@H](C)Cc1ccc(OC)c(S(N)(=O)=O)c1 [Tamsulosin hydrochloride] : 98.5%
12) O=c1[nH]nc2c3c(cccc13)N=C(CN1Cc3ccccc3C1)N2 : 74.5%
13) O=c1cc(N2CCOCC2)oc2c1ccc1ccccc12 : 89.2%
14) COc1ccc(CCc2nc3cc(-c4c(C)noc4C)ccc3n2C[C@H](C)N2CCOCC2)cc1Cl : 47.4%
15) OCCOc1ccc(/C(=C(/CCCl)c2ccccc2)c2ccccc2)cc1 [Ospemifene] : 79.3%
16) Cc1ccc(C(=O)Cn2c3c(sc2=N)CCCC3)cc1 : 84%
17) Nc1cc(C(F)(F)F)c(-c2cc(N3CCOCC3)nc(N3CCOCC3)n2)cn1 : 11.9%
18) COc1cc(C=O)ccc1O [Vanillin] : 103%
19) CCCCCCC(O)C(=O)O (stereo unspecified) [2-Hydroxycaprylic acid] : 101%
20) NC(=O)/C(=C/n1cnc(-c2cc(C(F)(F)F)cc(C(F)(F)F)c2)n1)c1cncnc1 : 0.67%
21) CC(C)=CCC[C@](C)(O[C@@H]1O[C@H](CO[C@@H]2OC[C@H](O)[C@H](O)[C@H]2O)[C@@H](O)[C@H](O)[C@H]1O)[C@H]1CC[C@]2(C)[C@@H]1[C@H](O)C[C@@H]1[C@@]3(C)CC[C@H](O[C@@H]4O[C@H](CO)[C@@H](O)[C@H](O)[C@H]4O[C@@H]4O[C@H](CO)[C@@H](O)[C@H](O)[C@H]4O)C(C)(C)[C@@H]3CC[C@]12C [Ginsenoside Rb2] : 92.2%
22) CCOC(C)OCCc1ccccc1 (stereo unspecified) [Efetaal] : 107%
23) O=C1C=C2C=C[C@@H](O)[C@H](O)[C@H]2O1 [Griffonilide] : 99.3%
24) Nc1ncnc2c1ncn2[C@@H]1O[C@H](COP(=O)(O)O)[C@@H](O)[C@H]1O [5'-Adenylic acid] : 87.1%
25) COc1ccnc(C[S+]([O-])c2nc3cc(-n4cccc4)ccc3[nH]2)c1C (stereo unspecified) [Ilaprazole] : 99.9%
26) C=C1CCC2C(C)(COC(=O)CCC(=O)O)C(OC(=O)CCC(=O)O)CCC2(C)C1C=CC1=CCOC1=O (stereo unspecified) [Dehydroandrographolide Succinate] : 109%
27) C[C@@H]1O[C@@H](OC[C@H]2O[C@@H](Oc3cc(O)c4c(=O)cc(-c5ccc(O)cc5)oc4c3)[C@H](O[C@@H]3O[C@@H](C)[C@H](O)[C@@H](O)[C@H]3O)[C@@H](O)[C@@H]2O)[C@H](O)[C@H](O)[C@H]1O [ligustroflavone] : 90.7%
28) N#C[C@@H]1CCCN1C(=O)CNC12CC3CC(CC(O)(C3)C1)C2 [Vildagliptin (LAF-237)] : 83.9%
29) COc1cc(O)c2c(c1)oc(=O)c1c3cc(O)c(O)cc3oc21 [Wedelolactone] : 61.3%
30) CCOc1nc2cccc(C(=O)OC(C)OC(=O)OC3CCCCC3)c2n1Cc1ccc(-c2ccccc2-c2nn[nH]n2)cc1 (stereo unspecified) [Candesartan cilexetil (Atacand)] : 62.2%
31) COc1cc(C(=O)OCCCCNC(=N)N)cc(OC)c1O [Leonurine] : 95.2%
